System: L1210
PROCEDURE DETAILS: Antitumor activity against mouse L1210 cells allografted in BDF1 mouse assessed as increase of host life span at 25 mg/kg, ip qd for 5 days
Assay type: functional
MEASUREMENT PARAMETERS: route intraperitoneal
OBSERVATION TYPE: Activity (%)
Answer in %, number only, no unit symbol.

SMILES STRING	ASSAYED TARGET	OBSERVED VALUE
CCCCC(=O)O[C@H]1[C@H]2Oc3nc(=N)ccn3[C@@H]2O[C@@H]1COP(=O)(O)O	L1210	37
Cc1ccc(S(=O)(=O)NCCC(=O)OC[C@H]2O[C@@H]3[C@H](Oc4nc(=[NH2+])ccn43)[C@@H]2OC(=O)CCNS(=O)(=O)c2ccc(C)cc2)cc1.F[B-](F)(F)F	L1210	15

-- ask Consider the molecule CCCCCCCOCCC(=O)OC[C@H]1O[C@@H]2[C@H](Oc3nc(=N)ccn32)[C@@H]1OC(=O)CCOCCCCCCC.Cl and give its measured Activity.
-- reply 28.2
